Where do the numbers come from? From patent US10717716B2.

Molecular target: human recombinant HDAC6 (Homo sapiens, UniProt Q9UBN7)
Construct: purchased Calbiochem 382180
Sequence (Q9UBN7 whole entry): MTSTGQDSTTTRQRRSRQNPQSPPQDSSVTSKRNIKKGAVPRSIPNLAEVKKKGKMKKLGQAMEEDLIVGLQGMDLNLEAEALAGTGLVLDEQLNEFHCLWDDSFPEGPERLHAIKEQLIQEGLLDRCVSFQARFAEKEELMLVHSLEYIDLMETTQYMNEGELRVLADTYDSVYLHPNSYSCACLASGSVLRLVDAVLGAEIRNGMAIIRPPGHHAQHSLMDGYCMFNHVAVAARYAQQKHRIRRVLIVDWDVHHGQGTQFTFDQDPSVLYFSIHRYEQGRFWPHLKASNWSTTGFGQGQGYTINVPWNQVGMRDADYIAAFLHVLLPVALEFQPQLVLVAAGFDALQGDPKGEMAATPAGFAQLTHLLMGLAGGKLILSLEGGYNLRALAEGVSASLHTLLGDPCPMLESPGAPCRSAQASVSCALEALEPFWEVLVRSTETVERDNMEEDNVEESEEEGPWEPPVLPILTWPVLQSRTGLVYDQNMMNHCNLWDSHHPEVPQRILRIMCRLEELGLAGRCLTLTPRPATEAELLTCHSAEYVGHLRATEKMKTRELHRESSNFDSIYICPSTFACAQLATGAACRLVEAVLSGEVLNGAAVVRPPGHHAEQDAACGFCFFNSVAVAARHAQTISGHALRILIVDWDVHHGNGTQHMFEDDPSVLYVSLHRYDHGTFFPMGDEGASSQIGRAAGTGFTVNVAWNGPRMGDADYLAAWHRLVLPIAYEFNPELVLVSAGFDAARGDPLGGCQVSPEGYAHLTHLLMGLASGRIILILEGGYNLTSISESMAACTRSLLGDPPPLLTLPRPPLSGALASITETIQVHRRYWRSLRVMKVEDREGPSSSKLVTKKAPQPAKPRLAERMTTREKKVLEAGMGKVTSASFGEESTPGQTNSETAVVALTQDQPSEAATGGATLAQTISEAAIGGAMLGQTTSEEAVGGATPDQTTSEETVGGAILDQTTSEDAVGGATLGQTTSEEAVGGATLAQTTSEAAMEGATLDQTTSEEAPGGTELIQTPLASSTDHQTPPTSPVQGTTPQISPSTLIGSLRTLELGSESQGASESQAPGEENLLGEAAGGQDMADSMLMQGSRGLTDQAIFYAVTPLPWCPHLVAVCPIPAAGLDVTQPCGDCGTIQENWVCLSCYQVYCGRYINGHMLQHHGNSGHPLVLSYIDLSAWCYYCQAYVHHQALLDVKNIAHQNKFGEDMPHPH
Experiment: HDAC6 enzyme activity inhibition assay (HDAC Fluorimetric Drug Discovery Kit)
Format: biochemical
Conditions: HDAC6 over HDAC1
Reported endpoint: HDAC6 selectivity (fold)
Express your answer in fold, writing the number without its unit.

# input Report HDAC6 selectivity (fold), nothing else, for this molecule: O=C(N1CCS(=O)(=O)CC1)N(Cc1ccc(-c2nnc(C(F)(F)F)o2)cc1)c1ccc(-c2cccnc2)cc1 [Compound 21489]
# output 18

# input Report HDAC6 selectivity (fold), nothing else, for this molecule: Cn1ccc2cc(N(Cc3ccc(-c4nnc(C(F)F)o4)cc3F)C(=O)N3CCS(=O)(=O)CC3)ccc21 [Compound 21799]
# output 33

# input Report HDAC6 selectivity (fold), nothing else, for this molecule: CN1CCN(C(=O)N(Cc2ccc(-c3nnc(C(F)(F)F)o3)cn2)c2ccccc2F)CC1 [Compound 21634]
# output 83

# input Report HDAC6 selectivity (fold), nothing else, for this molecule: O=C(N1CCOCC1)N(Cc1ccc(-c2nnc(C(F)(F)F)o2)cn1)c1cccc(Cl)c1 [Compound 21852]
# output 118
